protocol-summary: Cmax in Wistar rat plasma at 2 mg/kg, po
Assay type: ADME, organism-based
Set-up: dose 2 mg/kg, route oral
attribute-measured: Cmax (nM)
Lab book: enter the figure in nM, no units written.

Tell us which Cmax value is on record for O=C(Nc1ccc(F)cc1)N1N=C(c2ccncc2)CC1c1ccc(F)cc1 (stereo unspecified)
27

* * *

protocol-summary: Metabolic stability in mouse microsomes measured per mg protein
Format: ADME, Microsome
attribute-measured: microsomal CLint (µL/min/mg)
Answer in µL/min/mg, number only, no unit symbol.

For the compound O=C(Nc1ccc(F)cc1)N1N=C(c2ccncc2)CC1c1ccc(F)cc1 (stereo unspecified) , give its reported microsomal CLint.
37
